Just for reference, patent US12091425B2 is where these values come from.

molecular target: Mcl-1/Bim interaction, recombinant human Mcl-1 (171-327) (Homo sapiens, UniProt Q07820); construct: made in house; test: Cell free Mcl-1: Bim Affinity Assay (Mcl-1 HTRF); format: binding; conditions: cell free Mcl-1:Bim TR-FRET, recombinant human Mcl-1 (171-327)
Sequence (Q07820 171-327): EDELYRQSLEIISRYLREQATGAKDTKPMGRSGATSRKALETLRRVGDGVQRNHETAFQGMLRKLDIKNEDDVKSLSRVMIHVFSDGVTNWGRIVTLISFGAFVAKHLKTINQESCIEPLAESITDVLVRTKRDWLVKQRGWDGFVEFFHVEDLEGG
In this section, each of the compounds is paired with its reported IC50.
Report as: number unit

GET /value?item= CC[C@@H]1CC/C=C/[C@H](OC2COC2)[C@@H]2CC[C@H]2CN2C[C@@]3(CCCc4cc(Cl)ccc43)COc3ccc(cc32)C(=O)NS1(=O)=O &field=IC50 returns 1.04 nM

Others:
The reported value for O=C1NS(=O)(=O)C/C=C/C2(O)CCOC(C2)C2CCC2CN2CC3(CCCc4cc(Cl)ccc43)COc3ccc1cc32 (single isomer, unassigned) in terms of IC50 is 1 nM

Documented IC50 of COC[C@H]1C/C=C/[C@H](O)[C@@H]2CC[C@H]2CN2C[C@@]3(CCCc4cc(Cl)ccc43)COc3ccc(cc32)C(=O)NS1(=O)=O (single isomer, unassigned) : 5.2 nM

Just so you know, measured IC50 for O=C1NS(=O)(=O)CCC[C@@H](O)CC[C@@H]2CC[C@H]2CN2C[C@@]3(CCCc4cc(Cl)ccc43)COc3ccc1cc32 (single isomer, unassigned) came out at 3.96 nM

Entry under test: C[C@@H]1[C@@H](C)C/C=C\[C@H](OCCN2CCOCC2)[C@@H]2CC[C@H]2CN2C[C@@]3(CCCc4cc(Cl)ccc43)COc3ccc(cc32)C(=O)NS1(=O)=O . Its IC50 was 0.485 nM

Form field IC50, entry C[C@@H]1[C@@H](C)C/C=C/[C@H](OCCN2C[C@H]3C[C@@H]2CO3)[C@@H]2CC[C@H]2CN2C[C@@]3(CCCc4cc(Cl)ccc43)COc3ccc(cc32)C(=O)NS1(=O)=O : 0.291 nM

IC50 in this record for O=C1NS(=O)(=O)C[C@@H](CO)/C=C/C[C@H](O)[C@@H]2CC[C@H]2CN2C[C@@]3(CCCc4cc(Cl)ccc43)COc3ccc1cc32 (single isomer, unassigned) : 2.25 nM

Per the record, CO[C@H]1C/C=C/[C@H](O)[C@@H]2CC[C@H]2CN2C[C@@]3(CCCc4cc(Cl)ccc43)COc3ccc(cc32)C(=O)NS(=O)(=O)[C@@H]1CC1CC1 (single isomer, unassigned) [Example 575] has IC50 of 3.21 nM

Per the records, this compound ( COC1C=CCC(OC)C(CC2CCCO2)S(=O)(=O)NC(=O)c2ccc3c(c2)N(CC2CCC21)CC1(CCCc2cc(Cl)ccc21)CO3 (single isomer, unassigned) [Example 642] ) has IC50 equal to 0.539 nM

Looking up CC(C)C[C@@H]1C[C@@H](C)/C=C/[C@H](O)[C@@H]2CC[C@H]2CN2C[C@@]3(CCCc4cc(Cl)ccc43)COc3ccc(cc32)C(=O)NS1(=O)=O (single isomer, unassigned) , I found its IC50 recorded as 0.394 nM

###

biological target: Mcl-1/Bim interaction, recombinant human Mcl-1 (171-327) (Homo sapiens, UniProt Q07820); construct: made in house; assay: Cell free Mcl-1: Bim Affinity Assay (Mcl-1 HTRF); assay type: binding; conditions: TR-FRET, 0.1 nM Mcl-1 (171-327), 0.05 nM biotin-Bim (51-76)
Measured IC50 by item
API: value field is a number in nM; no unit string.

Data point: C[C@@H]1CC/C=C/[C@H](OCc2cn(C)nn2)[C@@H]2CC[C@H]2CN2C[C@@]3(CCCc4cc(Cl)ccc43)COc3ccc(cc32)C(=O)NS1(=O)=O ; IC50 = 0.214

COCCO[C@H]1/C=C/C[C@@H](C)CS(=O)(=O)NC(=O)c2ccc3c(c2)N(C[C@@H]2CC[C@H]21)C[C@@]1(CCCc2cc(Cl)ccc21)CO3 (single isomer, unassigned) yielded IC50 of 7.73

The molecule identified as CCN1CC/C=C/[C@H](OCC(=O)OC)[C@@H]2CC[C@H]2CN2C[C@@]3(CCCc4cc(Cl)ccc43)COc3ccc(cc32)C(=O)NS1(=O)=O registered its IC50 at 0.995

More entries:
Entry under test: O=C1NS(=O)(=O)NCC/C=C\[C@H](O)[C@@H]2CC[C@H]2CN2C[C@@]3(CCCc4cc(Cl)ccc43)COc3ccc1cc32 . Its IC50 was 0.535

Just so you know, measured IC50 for C[C@@H]1[C@@H](C)C/C=C/[C@H](OCC(=O)N2CCC(F)(F)CC2)[C@@H]2CC[C@H]2CN2C[C@@]3(CCCc4cc(Cl)ccc43)COc3ccc(cc32)C(=O)NS1(=O)=O came out at 0.774

Noted for CCC1C(C)C(C)C=CC(O)C2CCC2CN2CC3(CCCc4cc(Cl)ccc43)COc3ccc(cc32)C(=O)NS1(=O)=O (single isomer, unassigned) [Example 1055] : its IC50 reads 0.394

For reference, reported IC50 for CC[C@@H]1CC/C=C/[C@H](OCC(=O)O)[C@@H]2CC[C@H]2CN2C[C@@]3(CCCc4cc(Cl)ccc43)COc3ccc(cc32)C(=O)NS1(=O)=O stands at 0.103

The reported value for CC[C@@H]1CC/C=C/[C@H](OCCN2CCOCC2)[C@@H]2CC[C@H]2CN2C[C@@]3(CCCc4cc(Cl)ccc43)COc3ccc(cc32)C(=O)NS1(=O)=O in terms of IC50 is 1.09

GET /value?item= C[C@@H]1[C@@H](C)C/C=C/[C@H](OCC(=O)N2CC(C)(O)C2)[C@@H]2CC[C@H]2CN2C[C@@]3(CCCc4cc(Cl)ccc43)COc3ccc(cc32)C(=O)NS1(=O)=O &field=IC50 returns 0.177

Recorded result, C[C@@H]1C/C=C/[C@H](O)[C@@H]2CC[C@H]2CN2C[C@@]3(CCCc4cc(Cl)ccc43)COc3ccc(cc32)C(=O)NS(=O)(=O)N1 , IC50: 2.62

// recorded IC50 for CC[C@@H]1CC/C=C/[C@H](OCc2nccs2)[C@@H]2CC[C@H]2CN2C[C@@]3(CCCc4cc(Cl)ccc43)COc3ccc(cc32)C(=O)NS1(=O)=O : 3.08
